test system: Plasmodium falciparum; experiment: Calibr Malaria Delayed Death Assay SOP; type: functional, organism-based; parameters: scale not given: in the data most compounds retested in dose-response had high values; details: concentration 4.99e-06 (unit not given; other assays of the set use mol/L)
Hit rate of the full screen: of about 38,000 compounds, about 1,200 (3.2%) showed an effect of 50% or more. The median lay at about -58%. The list comes from a sample in which strong results are over-represented; it also holds close analogues and randomly drawn compounds.
Output Fulfilled for records whose Percent Effect is lower than -30%, Not fulfilled for records at or above -30%.

Worked examples, 4 molecules total:
molecule: Cc1nnc(C(NS(=O)(=O)c2cc(F)c(C)cc2F)C(C)C)[nH]1 (stereo not given)
category: Not fulfilled

molecule: CN(C)c1nc(N)nc(CN2CCC(c3nc4ccccc4o3)CC2)n1
category: Not fulfilled

molecule: Cc1nc(CC2CCCN(Cc3nc(N)c4ccccc4n3)C2)no1 (stereo not given)
category: Not fulfilled

molecule: c1ccc(Cc2n[nH]c(C3CCOC3)n2)cc1 (stereo not given)
category: Fulfilled

Now turn to the next molecule.
Criterion: Percent Effect strictly below -30%. Is it met by O=C(O)C(F)(F)F.O=C(O)C(F)(F)F.c1ccc(COC[C@@H]2CCC[C@]23CN(Cc2nccs2)CCO3)nc1 ? Not fulfilled

###

Recorded measurements of Percent Effect, one per entry
tested on: Plasmodium falciparum; assay: Calibr Malaria Delayed Death Assay SOP; format: functional, organism-based; set-up: scale not given: in the data most compounds retested in dose-response had high values; settings: concentration 4.99e-06 (unit not given; other assays of the set use mol/L)
The campaign covered roughly 38,000 compounds. About 1,200 (3.2%) showed an effect of 50% or more. The median lay at about -58%. What follows is part of a selection rich in strong results, with near analogues and random picks from the rest.
Value and unit, in that order.

# example entries with known answers
molecule: Cc1ccc(-c2cn[nH]c2C2CCCN(c3cc(N)ncn3)C2)cc1 (stereo not given)
targetEntity: Plasmodium falciparum
assayResult: -38.82%
--
molecule: CCc1nc(CN(C)C2CCN(CCCOc3ccccc3)C2)no1 (stereo not given)
targetEntity: Plasmodium falciparum
assayResult: -2.481%
--
molecule: c1ccc(Oc2nccc3occc23)c(CN2CCCCC2)c1
targetEntity: Plasmodium falciparum
assayResult: 71.51%

Quick one: give measured Percent Effect for CN1CCN(Cc2ccccc2Oc2nccc3occc23)CC1 77.3%

###

Each entry below carries its recorded Percent Effect.
system: Plasmodium falciparum; test: Calibr Malaria Delayed Death Assay SOP; assay type: functional, organism-based; set-up: scale not given: in the data most compounds retested in dose-response had high values; details: concentration 4.99e-06 (unit not given; other assays of the set use mol/L)
Out of some 38,000 compounds screened, about 1,200 (3.2%) showed an effect of 50% or more. The median lay at about -58%. The list comes from a sample in which strong results are over-represented; it also holds close analogues and randomly drawn compounds.
Unit % implied. Number only.

Use the examples below as a reference point.
compound: O=C(O)C(F)(F)F.O=S(=O)(C1CC1)N1CCO[C@H]2[C@@H](Oc3cccnc3)CC[C@@H]21
targetEntity: Plasmodium falciparum
unitsText: %
Percent Effect: -17.81
//
compound: CN1CCc2nc3c(c(N)c2C1)CCCN3C
targetEntity: Plasmodium falciparum
unitsText: %
Percent Effect: -6.547

State recorded Percent Effect with Plasmodium falciparum, entry O=C(Cc1cccc(Cl)c1)N[C@@H]1CCNC[C@H]1O , no comment. -79.06

Supply Percent Effect measured with Plasmodium falciparum for CC(C(=O)N1CCc2sccc2C1)N1CCC(N2CCCC2)CC1 (stereo not given) . 51.04

###

test system: Plasmodium falciparum; assay: Calibr Malaria Delayed Death Assay SOP; assay type: functional, organism-based; design: scale not given: in the data most compounds retested in dose-response had high values; conditions: concentration 4.99e-06 (unit not given; other assays of the set use mol/L)
The campaign covered roughly 38,000 compounds. About 1,200 (3.2%) showed an effect of 50% or more. The median lay at about -58%. The sample holds strong results, similar compounds and a random draw of the others, so the mix is not that of the screen.
Parameter Percent Effect: see the listing below.
# value in %; strip the unit string

molecule: O=C(COc1coc(CN2CCCCC2)cc1=O)Nc1cccc(Cl)c1
Percent Effect, %: -36.85

molecule: CCCn1ncc(C(=O)N2CCN(C3CCCC3)CC2)c1C
Percent Effect, %: -11.79

molecule: Cc1cccc(C(C)C)c1NC(=O)NCCN(C(C)C)C(C)C
Percent Effect, %: 37.4

molecule: CCCn1ncc(CN2C[C@@H]3CCCN3C[C@H]2Cc2ccccc2)c1C
Percent Effect, %: 55.8

molecule: CNC(=O)CS(=O)(=O)NC1CCC(C)CC1 (stereo not drawn)
Percent Effect, %: 0.5939

molecule: Cc1cccc(C2(C(=O)NCC3CN(C)CCO3)CC2)c1 (stereo not drawn)
Percent Effect, %: -0.8202

molecule: COc1ccc(S(=O)(=O)NCCn2cnc(C)cc2=O)cc1C
Percent Effect, %: -119.1

molecule: CC(C)N(CCNC(=O)c1ccc(S(=O)(=O)NC2CC2)cc1)C(C)C
Percent Effect, %: 3.108

Tell me its Percent Effect given CCCn1ncc(CN2C[C@@H]3CCCN3C[C@@H]2Cc2ccccc2)c1C as the entry. 62.1

Dear colleague, please send me the reported Percent Effect for Cc1ccccc1C(=O)N1CCO[C@H]2[C@H](OCCN(C)C)CC[C@@H]21.O=C(O)C(F)(F)F when you can. -35.41

Find the measured Percent Effect of CC(C)CC(CO)NS(=O)(=O)Cc1ccon1 (stereo not drawn) and report it. -57.79

Entry CCCn1ncc(CN2CCCCC2CCCOC)c1C (stereo not drawn) needs its Percent Effect filled in; supply it. -4.874

Answer with reported Percent Effect of Cc1nnc(NC(=O)NCc2ccc(OC3CCCC3)nc2)s1 2.114

###

test system: Plasmodium falciparum; assay: Calibr Malaria Delayed Death Assay SOP; type: functional, organism-based; set-up: scale not given: in the data most compounds retested in dose-response had high values; settings: concentration 4.99e-06 (unit not given; other assays of the set use mol/L)
Among all 38,000 compounds or so, about 1,200 (3.2%) showed an effect of 50% or more. The median lay at about -58%. For the sample, strong results were picked, then their nearest neighbours and some compounds at random.
measuredParameter: Percent Effect (%)
Field format: number, assumed %, no unit text.

Solved cases below.
compound: Cn1cc(CN2C[C@H]3CCN(C(=O)c4cscn4)C[C@H]3C2)cn1.O=C(O)C(F)(F)F
Percent Effect / %: -59.18
//
compound: Cc1c(C(=O)NCC2CCN(C)C2)n(C)c2c(C)cccc12 (configuration not stated)
Percent Effect / %: 8.044

Please report the measured Percent Effect for O=C1CN(C(=O)c2ccc(Cl)cc2)CC(O)CN1Cc1cccs1 (configuration not stated) -105.2

For CCC(CNC(=O)c1cc(OC)ccc1Br)N1CCc2ccccc2C1 (configuration not stated) , write its Percent Effect. 0.2059

Provide one value: measured Percent Effect of CC(C)n1nnnc1-c1ccc(NC(=O)N(C)CCN(C)C)cc1F -66.24

Please report Percent Effect for the following compound: CCCNc1ncc(-c2cc(C3CC3)nc(N)c2C#N)cn1 54.19

Give a short answer stating reported Percent Effect for Cc1nc2sccn2c1CNc1ccc(C(=O)O)cc1 . -70.26

Quickly give me recorded Percent Effect for Cc1ccnc(NC(=O)C2CCN(CCCn3ccnc3C)CC2)c1 23.63

Entry Cc1ccc(CN(CCN(C)C)C(=O)Cc2cn3ccccc3n2)o1 needs its Percent Effect filled in; supply it. -71.99

Note Percent Effect for the compound shown: O=C(O)C(F)(F)F.O=C(c1cccc(F)c1)N1CCC2(CC1)CN(c1ccccn1)CCO2 -103.6

Output measured Percent Effect for this item: Cc1nc(N2CCCC2)ncc1C(=O)Nc1ccc(Br)cc1 -75.85

Supply Percent Effect value. Item: CC(C)Nc1nc2c(c(NC3CC3)n1)CCN(Cc1nccn1C)CC2.O=C(O)C(F)(F)F 75.38

Return Percent Effect for the following compound: CC(=O)N1CCc2c(nc(N(C)C)nc2NCCCn2ccnc2C)C1 -154.1

Return value of Percent Effect for input Cn1ccnc1CN1CCCN(C(=O)c2ccc3cc[nH]c3c2)CC1 , no commentary. -18.34

Answer with reported Percent Effect of COCCSCC(=O)NCc1ccc(N(C)C)cc1 -84.72

Tell me Percent Effect reported for O=C(NCc1cnn2cccnc12)c1cccc(CC2CCNCC2)c1 65.91

Note Percent Effect for the compound shown: CCSc1ncc(-c2cc(C3CCC3)nc(N)c2C#N)cn1 -33.43

Please supply the value of reported Percent Effect for the item CN1CCC(N(C)C(=O)Nc2ccc(Cl)cc2)CC1 -68.4

###

test system: Plasmodium falciparum; assay: Calibr Malaria Delayed Death Assay SOP; assay type: functional, organism-based; design: scale not given: in the data most compounds retested in dose-response had high values; settings: concentration 4.99e-06 (unit not given; other assays of the set use mol/L)
Out of some 38,000 compounds screened, about 1,200 (3.2%) showed an effect of 50% or more. The median lay at about -58%. The sample holds strong results, similar compounds and a random draw of the others, so the mix is not that of the screen.
measuredParameter: Percent Effect (%)
Express your answer in %, writing the number without its unit.

compound: OC1CCN(Cc2ccc(CNc3ccc(Cl)cn3)cc2)CC1
unitsText: %
Percent Effect: -61.51

Print Plasmodium falciparum Percent Effect for C=C(C)CN1CCN(CCC(=O)Nc2ccccc2C(N)=O)CC1 . 11.76

Report Percent Effect on Plasmodium falciparum for this entry: O=C(O)CCNC(=O)C1(c2cccc(Br)c2)CCOCC1 -140.1

Lab note: Plasmodium falciparum assay, enter Percent Effect for CC(C)N1CCC(CNC(=O)CCc2cc(F)ccc2F)C1 (centres undefined) here 6.837
